- Species: Rattus norvegicus
- Assay details: Tissue biodistribution into estrogen-primed immature female rat uterus/blood at 1 hr blocked time interval
- Format: ADME, organism-based
- Condition set: in vivo
Each entry below lists one item and its recorded uterus/blood ratio value.
Measured property: uterus/blood ratio

* C[C@]12CCC3C(CCC4=CC(=O)CC[C@@H]43)C1C[C@H]1OC(c3ccco3)O[C@]12C(=O)CF (some centres not stated) | 3.68
* CC1(c2ccco2)O[C@@H]2CC3C4CCC5=CC(=O)CC[C@@H]5C4CC[C@]3(C)[C@]2(C(=O)CF)O1 (some centres not stated) | 2.47

* * *

- Organism: Rattus norvegicus
- Assay details: Tissue biodistribution into estrogen-primed immature female rat uterus/muscle at 1 hr blocked time interval
- Format: ADME, organism-based
- Condition set: in vivo
Measured property: uterus/muscle ratio

• CC1(c2ccco2)O[C@@H]2CC3C4CCC5=CC(=O)CC[C@@H]5C4CC[C@]3(C)[C@]2(C(=O)CF)O1 (some centres not stated) = 2.68
• C[C@]12CCC3C(CCC4=CC(=O)CC[C@@H]43)C1C[C@H]1OC(c3ccco3)O[C@]12C(=O)CF (some centres not stated) = 2.34
